B1: Vang-like protein 1 (Homo sapiens), Q8TAA9 (parent)
chain: MDTESTYSGYSYYSSHSKKSHRQGERTRERHKSPRNKDGRGSEKSVTIQPPTGEPLLGNDSTRTEEVQDDNWGETTTAITGTSEHSISQEDIARISKDMEDSVGLDCKRYLGLTVASFLGLLVFLTPIAFILLPPILWRDELEPCGTICEGLFISMAFKLLILLIGTWALFFRKRRADMPRVFVFRALLLVLIFLFVVSYWLFYGVRILDSRDRNYQGIVQYAVSLVDALLFIHYLAIVLLELRQLQPMFTLQVVRSTDGESRFYSLGHLSIQRAALVVLENYYKDFTIYNPNLLTASKFRAAKHMAGLKVYNVDGPSNNATGQSRAMIAAAARRRDSSHNELYYEEAEHERRVKKRKARLVVAVEEAFIHIQRLQAEEQQKAPGEVMDPREAAQAIFPSMARALQKYLRITRQQNYHSMESILQHLAFCITNGMTPKAFLERYLSAGPTLQYDKDRWLSTQWRLVSDEAVTNGLRDGIVFVLKCLDFSLVVNVKKIPFIILSEEFIDPKSHKFVLRLQSETSV
partner: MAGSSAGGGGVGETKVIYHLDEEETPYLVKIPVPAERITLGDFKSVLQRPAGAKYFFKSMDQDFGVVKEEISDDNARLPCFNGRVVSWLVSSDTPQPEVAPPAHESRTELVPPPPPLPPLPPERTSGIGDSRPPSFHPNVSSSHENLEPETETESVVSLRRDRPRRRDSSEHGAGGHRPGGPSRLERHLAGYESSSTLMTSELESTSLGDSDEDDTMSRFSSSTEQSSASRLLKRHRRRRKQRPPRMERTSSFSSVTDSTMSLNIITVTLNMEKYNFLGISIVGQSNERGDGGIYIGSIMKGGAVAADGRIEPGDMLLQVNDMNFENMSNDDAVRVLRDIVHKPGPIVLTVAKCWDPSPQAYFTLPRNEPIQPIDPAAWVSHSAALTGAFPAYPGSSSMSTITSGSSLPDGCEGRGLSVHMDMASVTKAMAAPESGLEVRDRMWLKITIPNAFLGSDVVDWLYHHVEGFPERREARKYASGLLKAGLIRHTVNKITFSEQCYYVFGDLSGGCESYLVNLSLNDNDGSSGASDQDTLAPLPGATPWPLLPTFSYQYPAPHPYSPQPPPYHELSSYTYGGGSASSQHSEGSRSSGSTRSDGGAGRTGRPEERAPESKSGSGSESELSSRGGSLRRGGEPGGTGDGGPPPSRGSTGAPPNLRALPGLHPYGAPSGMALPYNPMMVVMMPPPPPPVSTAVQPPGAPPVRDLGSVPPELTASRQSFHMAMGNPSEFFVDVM

- Variants of: B1
- conditionDescription: with dvl2_mouse Dvl2, Q60838
readoutType: effect of a mutation on the interaction

M328T :: with no effect
R274Q :: with no effect
